Please provide measured IC50 for the entries that follow.
biological target: soluble IL6R in cynomolgus monkey plasma (cynomolgus monkey, UniProt A0A2K5WN54 60-396); test: cyno plasma potency assay: competition ELISA, inhibition of human IL6 binding to soluble IL6R
Sequence (A0A2K5WN54 entry or part of it): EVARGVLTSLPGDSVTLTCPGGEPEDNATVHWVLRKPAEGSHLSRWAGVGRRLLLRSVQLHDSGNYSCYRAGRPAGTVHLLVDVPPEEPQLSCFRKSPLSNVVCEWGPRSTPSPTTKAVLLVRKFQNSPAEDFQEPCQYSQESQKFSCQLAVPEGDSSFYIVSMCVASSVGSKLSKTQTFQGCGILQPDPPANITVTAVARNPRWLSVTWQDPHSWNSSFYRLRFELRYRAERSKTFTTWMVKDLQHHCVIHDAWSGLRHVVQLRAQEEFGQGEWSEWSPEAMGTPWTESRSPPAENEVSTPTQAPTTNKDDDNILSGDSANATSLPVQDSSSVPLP
Just the number plus its unit, please.

Prompt: Param item = IL6R65PMP7F4 (VHH, Also expressed in E. coli and purified via IMAC) VHH: EVQLVESGGGLVQPGGSLRLSCAASGTTFKVNVMAWYRQAPGKGRELVAGIINGGSTTYADSVKGRFTISRDNAKNTLYLQMNSLRPEDTAVYYCAFVTTNSDYDLGRDYWGQGTLVTVSS ; retrieve measured IC50.
Completion: 0.09 nM

Prompt: Also IL6R65PMP7G8 (VHH, Also expressed in E. coli and purified via IMAC) VHH: EVQLVESGGGLVQPGGSLRLSCAASGSTFRINVMAWYRQAPGKGRELVAGVINDGSTTYADSVKGRFTISRDNAKNTLYLQMNSLRPEDTAVYYCAFVTTNSDYDLGRDYWGQGTLVTVSS ?
Completion: 0.14 nM

Prompt: Also Nanobody IL6R65 (VHH, also called ILR65) VHH: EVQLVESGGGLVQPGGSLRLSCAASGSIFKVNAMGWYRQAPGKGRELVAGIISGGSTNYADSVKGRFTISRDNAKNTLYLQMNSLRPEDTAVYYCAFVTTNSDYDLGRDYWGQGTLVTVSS ?
Completion: 2.99 nM

Prompt: Also IL6R65PMP7C4 (VHH, Also expressed in E. coli and purified via IMAC) VHH: EVQLVESGGGLVQPGGSLRLSCAASGTTFRINVMAWYRQAPGKGRELVAGIITNGSTSYADSVKGRFTISRDNAKNTLYLQMNSLRPEDTAVYYCAFVTTNSDYDLGRDYWGQGTLVTVSS ?
Completion: 0.08 nM

Prompt: Also IL6R65PMP7D6 (VHH, Also expressed in E. coli and purified via IMAC) VHH: EVQLVESGGGLVQPGGSLRLSCAASGSIFRVNVMAWYRQAPGKGRELVAAVINGGTTTYADSVKGRFTISRDNAKNTLYLQMNSLRPEDTAVYYCAFVTTNSDYDLGRDYWGQGTLVTVSS ?
Completion: 0.09 nM

Prompt: Also IL6R65PMP7G7 (VHH, Also expressed in E. coli and purified via IMAC) VHH: EVQLVESGGGLVQPGGSLRLSCAASGTTFKINIMAWYRQAPGKGRELVAGVITGGNTTYADSVKGRFTISRDNAKNTLYLQMNSLRPEDTAVYYCAFVTTNSDYDLGRDYWGQGTLVTVSS ?
Completion: 0.11 nM
